Taken from patent US5159081A.

Kindly state ED50 for each of the entries shown.
target: peripheral opioid receptors (Mus musculus); assay: mouse diarrhea test: precipitated diarrhea in morphine-maintained mice (peripheral opioid activity); type: in vivo; conditions: mouse diarrhea test; morphine-maintained mice; subcutaneous or oral; 30 min observation
Sequence (P42866 whole entry): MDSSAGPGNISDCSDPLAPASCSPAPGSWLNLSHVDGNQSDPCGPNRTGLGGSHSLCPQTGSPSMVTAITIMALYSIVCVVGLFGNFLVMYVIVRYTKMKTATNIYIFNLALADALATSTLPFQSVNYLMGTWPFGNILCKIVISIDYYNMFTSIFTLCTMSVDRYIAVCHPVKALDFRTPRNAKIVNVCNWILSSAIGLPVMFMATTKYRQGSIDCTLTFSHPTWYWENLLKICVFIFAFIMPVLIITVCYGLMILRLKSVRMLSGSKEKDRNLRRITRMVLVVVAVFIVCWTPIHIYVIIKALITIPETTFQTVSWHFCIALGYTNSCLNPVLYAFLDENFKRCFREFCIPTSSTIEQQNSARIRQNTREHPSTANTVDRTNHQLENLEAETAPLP
Counter-ions that a name gives are not always drawn.
Numbers only, in mg/kg.

CCCOC(=O)CCCC(=O)N[C@@H](CC1CCCCC1)CN1CC[C@](C)(c2cccc(O)c2)[C@H](C)C1 [Example 53] ... 1.06
CC(C)CC(CCN1CC[C@@](C)(c2cccc(O)c2)[C@@H](C)C1)NC(=O)CCCC(=O)O (stereo partly drawn) [Example 4] ... 0.07
CCOC(=O)CC(=O)N[C@H](Cc1ccccc1)CN1CC[C@@](C)(c2cccc(O)c2)[C@@H](C)C1 [Example 10, hydrochloride] ... 0.12
CCOC(=O)CCC(=O)NC(CCN1CC[C@@](C)(c2cccc(O)c2)[C@@H](C)C1)CC(C)C (single isomer, unassigned) [Example 2A] ... 0.29
C[C@H]1CN(CC(Cc2ccccc2)NC(=O)CCCC(=O)O)CC[C@@]1(C)c1cccc(O)c1 (relative stereo) [Example 15, monohydrate] ... 0.028
CC1CN(C[C@H](CC2CCCCC2)NC(=O)CCCC(=O)O)CCC1(C)c1cccc(O)c1 (single isomer, unassigned; (+)) [Example 16] ... 0.12
CCOC(=O)CCCC(=O)N[C@@H](CC1CCCCC1)CN1CC[C@@](C)(c2cccc(O)c2)[C@@H](C)C1 [Example 52] ... 0.02
COC(=O)CCCC(=O)N[C@@H](CC1CCCCC1)CN1CC[C@@](C)(c2cccc(O)c2)[C@@H](C)C1 [Example 50] ... 0.056
C[C@H]1CN(CCC(CC2CCCCC2)NC(=O)CCC(=O)O)CC[C@@]1(C)c1cccc(O)c1 (stereo partly drawn) [Example 1, monohydrate] ... 0.01
C[C@H]1CN(C[C@@H](CC2CCCCC2)NC(=O)CCCC(=O)O)CC[C@@]1(C)c1cccc(O)c1 [Example 46D] ... 0.09

Items follow; give ED50 for each.
1. Cc1oc(=O)oc1COC(=O)CCCC(=O)N[C@@H](CC1CCCCC1)CN1CC[C@@](C)(c2cccc(O)c2)[C@@H](C)C1 [Example 70]
2. CNC(=O)COC(=O)CCCC(=O)N[C@@H](CC1CCCCC1)CN1CC[C@](C)(c2cccc(O)c2)[C@H](C)C1 [Example 62]
3. CC1CN(CCNC(=O)[C@H](CCCNC(=N)N[N+](=O)[O-])NC(=O)OC(C)(C)C)CCC1(C)c1cccc(O)c1 (stereo partly drawn) [Example 44]

Response line:
0.017
0.03
0.07

# batch: return ED50 for each of the 4 molecules below
1. CCOC(=O)CC(=O)N[C@H](Cc1ccccc1)CN1CC[C@](C)(c2cccc(O)c2)[C@H](C)C1 [Example 12, hydrochloride]
2. CNC(=O)COC(=O)CCCC(=O)N[C@@H](CC1CCCCC1)CN1CC[C@@](C)(c2cccc(O)c2)[C@@H](C)C1 [Example 63]
3. CCOC(=O)CCC(=O)N(CCN1CC[C@@](C)(c2cccc(O)c2)[C@@H](C)C1)C1CCCCC1 (relative stereo) [Example 71]
4. CCOC(=O)CCC(=O)NC(CCN1CC[C@@](C)(c2cccc(O)c2)[C@@H](C)C1)CC(C)C (stereo partly drawn) [Example 2B]

Response line:
0.20
0.003
0.29
0.19
